System: U251 CNS
TEST SUMMARY: NCI-60 one-dose screen, 48 h (100 = growth as untreated, 0 = no growth, -100 = all killed)
EXPERIMENTAL CONDITIONS: 10 µM unless noted
The panel holds about 83,000 compounds, 20% with a hit somewhere; the sample as a whole holds those more often. Activity calls are given as the source filed them. The calls were made as follows: active = growth percent below 10; inactive = the rest.
PARAMETER: growth

Query :: // Input: COP(=O)(OC)c1nnn(-c2cccc([N+](=O)[O-])c2)c1C . Output its growth only.
Result :: 99.7% (inactive)

Query :: Tell me growth reported for COc1cc(/C=C2\C(=O)N(c3c(Cl)cccc3Cl)c3ccccc32)cc(OC)c1OCCCCCCn1c2ccccc2c(=O)c2ccccc21
Result :: 103% (inactive)

Query :: Please report growth for the following compound: O=C(Cn1nnc2ccccc21)Nc1ccc(-c2nc3ccccc3s2)cc1
Result :: 89.6% (inactive)

Query :: Complete the entry with growth for CCOC(=O)c1n[nH]n2c1nc(=O)c1cnn(C)c12
Result :: 100% (inactive)

Query :: Identify growth associated with the compound CC(=O)Nc1c(Cl)cc(Cl)c2c1Cc1cc([N+](=O)[O-])ccc1-2
Result :: 74.3% (inactive)

Query :: Note growth for the compound shown: COc1cc(OC)cc(C2C(C#N)=C(N)Oc3c2ccc2ccc(O)cc32)c1 (stereo not given)
Result :: 12.8% (inactive)

Query :: Give recorded growth. O=C1NC(=O)c2c1c1c3ccccc3[nH]c1c1oc3ccc(F)cc3c21
Result :: 83.4% (inactive)

Query :: Please indicate growth recorded for CCCCCCC(=O)Nc1ncc(Cc2ccc(C)cc2)s1
Result :: 39% (inactive)

Query :: Give the value of growth reported for the following: Clc1ccc(-c2cn3ccsc3n2)c(Cl)c1Cl
Result :: 91% (inactive)

Query :: State, in one line, measured growth of N/C(=N\c1nc2ccccc2s1)NC(=NC1CCCCC1)NC1CCCCC1
Result :: -56.2% (active)

Query :: Tell me its growth given O=C(/C=C/c1ccc(Br)cc1)c1ccc(-n2cc(CN3CCN(c4cc5c(cc4F)c(=O)c(C(=O)O)cn5C4CC4)CC3)nn2)cc1 as the entry.
Result :: 71.2% (inactive)

Query :: Return value of growth for input Clc1ccc(-c2nc(-c3c[nH]c4ncccc34)cs2)cc1 , no commentary.
Result :: 16.2% [100 µM] (inactive)

Query :: Complete the entry with growth for CCCCSCC(=O)c1ccccc1
Result :: 97.3% (inactive)

Query :: Read off the recorded growth for COc1ccc(/C=C/C(=O)c2ccc(NC(=O)CSc3nnc(-c4cc(-c5ccccc5)nc5ccccc45)n3-c3ccccc3)cc2)cc1
Result :: 102% (inactive)

Query :: Please indicate growth recorded for COc1ccc(-c2cc(-c3ccc(OC)cc3)nc(NCCCNc3ccnc4cc(Cl)ccc34)n2)cc1
Result :: 70.7% (inactive)

Query :: Please report the measured growth for O=C(c1ccc(F)c(Cl)c1)N1c2ccccc2Sc2ccccc21
Result :: 39.4% (inactive)

Query :: Provide one value: measured growth of Cc1cc(C(=O)Nc2cc(Nc3ncccc3-c3ncnc4nc[nH]c34)ccc2F)cc(C(F)(F)F)c1
Result :: 57.3% (inactive)

Query :: Tell me measured growth for CCOC(=O)c1c2c(n3ccccc13)C(=O)c1ncccc1C2=O please.
Result :: 0.0106% (active)

Query :: Quickly give me recorded growth for N#Cc1c(-c2cccc([N+](=O)[O-])c2)cc(-c2ccc(Nc3nc(Nc4ccc(F)cc4)nc(Nc4ccc(F)cc4)n3)cc2)nc1N
Result :: 110% (inactive)

Query :: Identify growth associated with the compound S=c1[nH]c2cc(Cl)ccc2o1
Result :: 104% (inactive)

---

Give growth for every item shown.
Tested on: SK-OV-3 ovarian
TEST SUMMARY: NCI-60 one-dose screen, 48 h (100 = growth as untreated, 0 = no growth, -100 = all killed)
EXPERIMENTAL CONDITIONS: 10 µM unless noted
About 83,000 compounds went through this panel and 20% of them were active in at least one assay; those are over-represented in the sample as a whole.
The response must be a number in % with no trailing unit.

Query :: Identify measured growth associated with CCCCCCCCCCCCCCCCCCOc1ccccc1CC(=O)NCC[N+]1(C)CCOCC1
Result :: 81.2

Query :: Read the entry O=C1/C(=C/c2ccccc2[N+](=O)[O-])COc2ccc(O)cc21 and write its reported growth.
Result :: 77.7

Query :: Please report the measured growth for O=C(O)CCCc1cnc2c3sccc3nc(SCc3c(Cl)cccc3Cl)n12
Result :: 36.5

Query :: Look up and report measured growth for this entry: CC(C)c1ccc(-n2c(=S)[nH]c3sc4c(c3c2=O)CCC(=O)C4)cc1
Result :: 84.3

Query :: Tell me its growth given COc1ccc(-c2cn(-c3ccc(Cl)cc3)c(SCC(=O)c3ccc([N+](=O)[O-])cc3)n2)cc1 as the entry.
Result :: 85.2

Query :: Find the measured growth of CN(C)c1ccc(C(=NO)c2ccc(N(C)C)cc2)cc1 and report it.
Result :: 57.7

Query :: // Input: Cc1cc2oc(=O)cc(CP(=O)(O)O)c2cc1O . Output its growth only.
Result :: 105

Query :: Note down growth recorded for C=C(C)[C@@H]1CC[C@]2(CO)CC[C@]3(C)[C@H](CC[C@@H]4[C@@]5(C)CCC(NCCc6ccc(O)cc6)C(C)(C)[C@@H]5CC[C@]43C)[C@@H]12 (some centres undefined)
Result :: 75.8

Query :: Specify reported growth for the compound shown: Cn1cc(-c2csc(-c3cn(C)c4ccc(Br)cc34)n2)c2cnccc21
Result :: 96.5

---

Test system: NCI-H522 lung
TEST SUMMARY: NCI-60 one-dose screen, 48 h (100 = growth as untreated, 0 = no growth, -100 = all killed)
EXPERIMENTAL CONDITIONS: 10 µM unless noted
Compounds without any hit were thinned out: in the full panel of roughly 83,000, 20% have a hit.
PARAMETER: growth (%)
Express the result in % but write the number alone.

Query :: Please give the documented growth of O=C(c1ccc(Cl)cc1Cl)N1c2ccccc2Sc2ccccc21
Result :: 63.7

Query :: Tell me growth reported for COc1ccc(Cc2nnc(Nc3nc4ccccc4s3)s2)cc1
Result :: 100

Query :: Quickly give me recorded growth for CC(C)=CC(=O)N[C@@H]1CC2CCC3C(CC[C@@]4(C)C3CC[C@@H]4C(C)N(C)C)[C@@]2(C)C[C@@H]1O (some centres undefined)
Result :: 83

Query :: Return growth (reported value) for this molecule: Cc1nc2sc(C(=O)Nc3ccccc3)c(N)c2cc1C(=O)/C=C/c1ccccc1
Result :: -42.5

Query :: Give a short answer stating reported growth for CC1(C)CC[C@]2(C(=O)O)CC[C@]3(C)C(=CC[C@@H]4[C@@]5(C)C[C@@H](Cc6cn([C@@H]7O[C@H](CO)[C@@H](O)[C@H](O)[C@H]7O)nn6)[C@H](O)C(C)(C)[C@@H]5CC[C@]43C)[C@@H]2C1 .
Result :: 106

Query :: Indicate the recorded growth value for this molecule: CCCCCCCC/C=C\CCCCCCCCOc1ccc(CC(=O)NCC[N+](C)(C)C)cc1
Result :: 50.7

Query :: State, in one line, measured growth of COc1ccc(C2=Nc3c/c(=C\c4c(O)[nH]c5cc(Cl)ccc45)ccc3=N2)cc1
Result :: 46

Query :: Tell me growth reported for CCOC(=O)Cn1c(=O)c2c3ccccc3n(C)c2n2nnc(-c3ccccc3)c12
Result :: 86.1

Query :: Specify measured growth for COC(c1ccc2ccccc2c1)C(C)C(F)F (centres undefined) .
Result :: 86.9

---

Record form. Attribute: growth. Fill in for each entry.
Test system: UO-31 renal
TEST SUMMARY: NCI-60 one-dose screen, 48 h (100 = growth as untreated, 0 = no growth, -100 = all killed)
EXPERIMENTAL CONDITIONS: 10 µM unless noted
About 83,000 compounds went through this panel and 20% of them were active in at least one assay; those are over-represented in the sample as a whole.
Your answer is read as %, so omit the unit and give the number.

Query :: Provide one value: measured growth of O=C(CSc1nc2ccc([N+](=O)[O-])cc2[nH]1)Nc1ccc(Br)cc1
Result :: 41

Query :: // fetch growth given entry COc1ccc(C2=Nc3c/c(=C\c4c(O)[nH]c5cc(Cl)ccc45)ccc3=N2)cc1
Result :: 58.6

Query :: Read the entry CCN1C(=O)N(CC)C2C1NN=c1s/c(=C3\C(=O)N(CCc4ccccc4)c4ccccc43)c(=O)n12 (stereo not given) and write its reported growth.
Result :: 45.4

Query :: Input Cc1ccc(C)n1/C=C/n1c(C)ccc1C , output reported growth.
Result :: 93.6

Query :: State its growth: CCN(CC)S(=O)(=O)c1ccc(S(=O)(=O)N2CCC[C@@H](C(=O)N3CCN(C(=O)OC(C)(C)C)CC3)C2)cc1
Result :: 73.6

Query :: Identify the reported growth for the following entry. COc1ccc(/C=C/C(=O)c2cc3c(N)c(C(=O)Nc4ccccc4C)sc3nc2C)cc1
Result :: 40.4

Query :: For the molecule O=C(Nc1ncc(Cc2ccccc2Cl)s1)c1cccs1 , report growth.
Result :: 70.8

Query :: State its growth: CC[C@@H](c1ccc2cc(OC)ccc2c1)C(C)(C)C(=O)F
Result :: 97

Query :: Give the reported value of growth for this record: CC1=NN(c2ccc(Cl)cc2)CC1(C)N=O (stereo not given)
Result :: 32.8

Query :: Fill in reported growth for this entry: COc1ccc2c(c1)c(-c1cc(-c3cn(C)c4ccc(OC)cc34)on1)cn2C
Result :: 80.6
